Give measured growth at 10 µM for each item. Keep answers brief.
system: HT-29; experiment: Antiproliferative activity against human HT-29 cells assessed as cell growth at 10 uM; assay type: functional; conditions: read-out: Activity
Lab book: enter the figure in %, no units written.

What growth at 10 µM value was documented for this molecule, O=C1c2ccccc2C(=O)c2c1ccc1nsnc21 ?
117

What growth at 10 µM value was documented for this molecule, Cc1ccc(-c2nc3ccc4c(c3[nH]2)C(=O)c2ccccc2C4=O)cc1 ?
106

What growth at 10 µM value was documented for this molecule, CN(C)c1ccc(-c2nc3ccc4c(c3[nH]2)C(=O)c2ccccc2C4=O)cc1 ?
105

What growth at 10 µM value was documented for this molecule, CCc1nc2ccc3c(c2[nH]1)C(=O)c1ccccc1C3=O ?
64.5

What growth at 10 µM value was documented for this molecule, CC1(C)Nc2ccc3c(c2N1)C(=O)c1ccccc1C3=O ?
103

What growth at 10 µM value was documented for this molecule, O=C1c2ccccc2C(=O)c2c1ccc1nc(-c3ccccc3)[nH]c21 ?
83.2

What growth at 10 µM value was documented for this molecule, COc1cc(-c2nc3ccc4c(c3[nH]2)C(=O)c2ccccc2C4=O)ccc1O ?
101

What growth at 10 µM value was documented for this molecule, O=C1c2ccccc2C(=O)c2c1ccc1nc(-c3ccc4c(c3)OCO4)[nH]c21 ?
95.8

What growth at 10 µM value was documented for this molecule, O=C1c2ccccc2C(=O)c2c1ccc1nc(-c3ccc(Br)cc3)[nH]c21 ?
98.8

What growth at 10 µM value was documented for this molecule, O=C1c2ccccc2C(=O)c2c1ccc1nccnc21 ?
81.9

What growth at 10 µM value was documented for this molecule, N#Cc1ccc(-c2nc3ccc4c(c3[nH]2)C(=O)c2ccccc2C4=O)cc1 ?
86.4

###

test system: RXF 393; test: Antiproliferative activity against human RXF393 cells assessed as cell growth at 10 uM; format: functional; details: read-out: Activity
test_readout: growth at 10 µM (%)
Lab book: enter the figure in %, no units written.

What growth at 10 µM value was documented for this compound, O=C1c2ccccc2C(=O)c2c1ccc1nccnc21 ?
105

What growth at 10 µM value was documented for this compound, CC1(C)Nc2ccc3c(c2N1)C(=O)c1ccccc1C3=O ?
85.1

What growth at 10 µM value was documented for this compound, N#Cc1ccc(-c2nc3ccc4c(c3[nH]2)C(=O)c2ccccc2C4=O)cc1 ?
117

What growth at 10 µM value was documented for this compound, O=C1c2ccccc2C(=O)c2c1ccc1nc(-c3ccc4c(c3)OCO4)[nH]c21 ?
120

What growth at 10 µM value was documented for this compound, O=C1c2ccccc2C(=O)c2c1ccc1nsnc21 ?
20.1

###

experiment: Cytotoxicity against human H1299 cells at 1 uM after 48 hrs by MTT assay; type: functional; conditions: NCI-H1299, 48 h
viability at 1 µM strictly less than 80% = 1.0. Otherwise 0.0.

Threshold test, viability at 1 µM < 80%: CC(C)(C)c1nc2ccc3c(c2[nH]1)C(=O)c1ccccc1C3=O
0.0

Threshold test, viability at 1 µM < 80%: Cc1nc2ccc3c(c2[nH]1)C(=O)c1ccccc1C3=O
1.0

Threshold test, viability at 1 µM < 80%: O=C1c2ccccc2C(=O)c2c1ccc1[nH]c(=S)[nH]c21
0.0

Threshold test, viability at 1 µM < 80%: CC1(c2ccccc2)Nc2ccc3c(c2N1)C(=O)c1ccccc1C3=O (stereo unspecified)
0.0

Threshold test, viability at 1 µM < 80%: O=C1c2ccccc2C(=O)c2c1ccc1nc(-c3ccc(Br)cc3)[nH]c21
0.0

Threshold test, viability at 1 µM < 80%: CCCCCCCc1nc2ccc3c(c2[nH]1)C(=O)c1ccccc1C3=O
0.0

Threshold test, viability at 1 µM < 80%: CCC(C)c1nc2ccc3c(c2[nH]1)C(=O)c1ccccc1C3=O (stereo unspecified)
1.0

Threshold test, viability at 1 µM < 80%: CN(C)c1ccc(-c2nc3ccc4c(c3[nH]2)C(=O)c2ccccc2C4=O)cc1
0.0

Threshold test, viability at 1 µM < 80%: O=C1c2ccccc2C(=O)c2c1ccc1nsnc21
1.0
